# tested_target: PRC2^Y111L (Homo sapiens, UniProt Q15910, Y111L)
# Sequence (Q15910 whole entry Y111L): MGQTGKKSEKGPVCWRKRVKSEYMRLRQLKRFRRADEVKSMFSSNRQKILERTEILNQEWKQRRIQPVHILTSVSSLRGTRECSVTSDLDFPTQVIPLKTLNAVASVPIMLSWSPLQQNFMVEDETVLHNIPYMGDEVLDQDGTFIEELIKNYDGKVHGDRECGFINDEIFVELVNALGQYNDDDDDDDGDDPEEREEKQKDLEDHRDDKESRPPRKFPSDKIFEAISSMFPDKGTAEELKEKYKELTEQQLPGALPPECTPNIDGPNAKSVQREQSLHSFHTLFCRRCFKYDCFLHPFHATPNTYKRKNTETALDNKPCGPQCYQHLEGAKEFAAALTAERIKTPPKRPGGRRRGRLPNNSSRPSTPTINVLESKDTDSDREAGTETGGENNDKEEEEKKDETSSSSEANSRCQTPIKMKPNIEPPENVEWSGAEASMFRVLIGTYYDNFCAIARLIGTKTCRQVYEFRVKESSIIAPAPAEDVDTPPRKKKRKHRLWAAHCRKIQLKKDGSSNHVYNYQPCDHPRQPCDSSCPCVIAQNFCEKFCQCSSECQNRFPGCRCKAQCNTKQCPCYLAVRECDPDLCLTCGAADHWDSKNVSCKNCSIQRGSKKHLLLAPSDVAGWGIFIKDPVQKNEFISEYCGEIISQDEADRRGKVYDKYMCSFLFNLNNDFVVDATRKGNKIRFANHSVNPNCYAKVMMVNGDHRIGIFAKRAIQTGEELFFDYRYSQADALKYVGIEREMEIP
# Sequence (O75530 whole entry partner): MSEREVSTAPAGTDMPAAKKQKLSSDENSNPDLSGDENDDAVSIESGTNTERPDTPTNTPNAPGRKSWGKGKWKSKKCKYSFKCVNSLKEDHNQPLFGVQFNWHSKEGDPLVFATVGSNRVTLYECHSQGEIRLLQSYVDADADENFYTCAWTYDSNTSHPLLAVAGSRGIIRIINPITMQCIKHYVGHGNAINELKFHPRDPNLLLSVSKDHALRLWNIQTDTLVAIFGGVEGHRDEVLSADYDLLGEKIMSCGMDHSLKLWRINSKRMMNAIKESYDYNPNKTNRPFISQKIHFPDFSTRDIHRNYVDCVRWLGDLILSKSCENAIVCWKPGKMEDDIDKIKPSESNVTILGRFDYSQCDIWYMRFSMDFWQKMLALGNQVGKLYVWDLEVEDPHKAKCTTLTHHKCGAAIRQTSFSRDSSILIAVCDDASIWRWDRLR
# Sequence (Q15022 whole entry partner): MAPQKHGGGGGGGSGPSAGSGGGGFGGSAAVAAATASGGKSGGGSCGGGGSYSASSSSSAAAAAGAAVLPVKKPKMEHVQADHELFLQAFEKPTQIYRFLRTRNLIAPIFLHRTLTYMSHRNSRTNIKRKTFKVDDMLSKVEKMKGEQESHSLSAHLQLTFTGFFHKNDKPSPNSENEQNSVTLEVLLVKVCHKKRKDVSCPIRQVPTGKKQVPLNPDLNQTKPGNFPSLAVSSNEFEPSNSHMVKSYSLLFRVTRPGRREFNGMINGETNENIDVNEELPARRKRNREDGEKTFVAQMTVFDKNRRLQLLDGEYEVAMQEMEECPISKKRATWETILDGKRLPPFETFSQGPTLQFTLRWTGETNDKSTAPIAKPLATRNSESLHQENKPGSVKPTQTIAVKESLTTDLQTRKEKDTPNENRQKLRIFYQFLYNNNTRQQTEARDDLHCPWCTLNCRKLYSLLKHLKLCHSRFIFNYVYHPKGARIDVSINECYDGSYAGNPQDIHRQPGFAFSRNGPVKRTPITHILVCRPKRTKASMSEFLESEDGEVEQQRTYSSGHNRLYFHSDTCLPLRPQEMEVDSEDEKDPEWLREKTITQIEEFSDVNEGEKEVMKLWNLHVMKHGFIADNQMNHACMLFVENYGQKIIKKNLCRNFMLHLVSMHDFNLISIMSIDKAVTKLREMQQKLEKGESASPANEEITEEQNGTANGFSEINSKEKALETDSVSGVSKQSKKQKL
# Type: biochemical
# particulars: read-out: IC50 Y111L; substrate H3K27Me0 peptide; [SAM] 1 µM
experimental_endpoint: IC50
Answer with the number, then the unit.

[Q] # IC50 lookup, item `CCC(CC)n1ccc2c(C(=O)NCc3c(C)cc(C)[nH]c3=O)cc(C#N)cc21`
[A] 3.1 µM

====

# tested_target: PRC2^WT (Homo sapiens, UniProt Q15910)
# Sequence (Q15910 whole entry, one chain of several): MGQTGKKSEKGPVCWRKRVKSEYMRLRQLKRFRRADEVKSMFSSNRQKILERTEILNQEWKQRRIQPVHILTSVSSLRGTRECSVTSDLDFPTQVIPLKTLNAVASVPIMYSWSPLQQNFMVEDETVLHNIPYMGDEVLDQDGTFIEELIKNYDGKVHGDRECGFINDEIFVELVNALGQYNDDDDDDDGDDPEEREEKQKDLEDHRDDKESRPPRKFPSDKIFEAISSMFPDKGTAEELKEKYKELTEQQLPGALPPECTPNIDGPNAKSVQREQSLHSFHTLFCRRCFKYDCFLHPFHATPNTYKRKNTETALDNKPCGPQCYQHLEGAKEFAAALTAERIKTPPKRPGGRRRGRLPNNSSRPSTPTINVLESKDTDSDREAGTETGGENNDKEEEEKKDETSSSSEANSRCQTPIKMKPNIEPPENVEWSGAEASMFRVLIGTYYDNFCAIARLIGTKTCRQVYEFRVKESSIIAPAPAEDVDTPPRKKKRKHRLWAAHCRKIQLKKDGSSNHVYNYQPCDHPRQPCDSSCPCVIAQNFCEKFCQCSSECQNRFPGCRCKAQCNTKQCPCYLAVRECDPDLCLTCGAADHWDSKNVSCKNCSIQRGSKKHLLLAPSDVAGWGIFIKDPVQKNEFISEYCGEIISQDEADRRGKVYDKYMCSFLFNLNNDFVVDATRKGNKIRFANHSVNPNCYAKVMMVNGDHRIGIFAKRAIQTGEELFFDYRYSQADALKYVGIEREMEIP
# Type: biochemical
# particulars: read-out: IC50 WT; substrate H3K27Me1 peptide; [SAM] 1 µM
experimental_endpoint: IC50
Answer with the number, then the unit.

[Q] # IC50 lookup, item `CCC(CC)n1ccc2c(C(=O)NCc3c(C)cc(C)[nH]c3=O)cc(C#N)cc21`
[A] 9 nM

====

# tested_target: PRC2^WT (Homo sapiens, UniProt Q15910)
# Format: biochemical
# particulars: read-out: IC50 WT; substrate H3K27Me0 peptide; [SAM] 1 µM
experimental_endpoint: pIC50
Conceptually, pIC50 converts a concentration in mol/L into minus its log10.

[Q] # pIC50 lookup, item CCC(CC)n1ccc2c(C(=O)NCc3c(C)cc(C)[nH]c3=O)cc(C#N)cc21 [EI1]
[A] 7.70
